Examples of substances with documented NFKB1 fold induction respect to basal conditions follow.
tested on: Nuclear Factor Kappa B subunit 1 (NFKB1); test: Innate immune response gene expression in HEKa, real time PCR array; type: cell-based, human; settings: 50 μg/ml, 24 h
PROPERTY_MEASURED: NFKB1 fold induction respect to basal conditions

substance="Ac-EEMQRRTD-NH2 [PEP-21, Ac-Glu-Glu-Met-Gln-Arg-Arg-Thr-Asp-NH2]" result_number=2.39
substance="Ac-EEMDRRA-NH2 [PEP-42, Ac-Glu-Glu-Met-Asp-Arg-Arg-Ala-NH2]" result_number=2.70
substance="Ac-EELQRR-OH [PEP-63, Ac-Glu-Glu-Leu-Gln-Arg-Arg-OH]" result_number=1.50
substance="Ac-EEMQRRV-NH2 [PEP-44, Ac-Glu-Glu-Met-Gln-Arg-Arg-Val-NH2]" result_number=1.24
substance="Ac-EEMERRAD-OH [PEP-31, Ac-Glu-Glu-Met-Glu-Arg-Arg-Ala-Asp-OH]" result_number=2.24
substance="H-EEMQRR-NH2 [PEP-56, H-Glu-Glu-Met-Gln-Arg-Arg-NH2]" result_number=1.90
substance="Ac-EEMQRRS-NH2 [PEP-37, Ac-Glu-Glu-Met-Gln-Arg-Arg-Ser-NH2]" result_number=2.88
substance="Ac-EEMQRK-NH2 [PEP-45, Ac-Glu-Glu-Met-Gln-Arg-Lys-NH2]" result_number=2.21
substance="Ac-QEMQRR-NH2 [PEP-52, Ac-Gln-Glu-Met-Gln-Arg-Arg-NH2]" result_number=2.57

====

test system: Nuclear Factor Kappa B subunit 1 (NFKB1); assay: Innate immune response gene expression in HEKa, real time PCR array; assay type: cell-based, human; details: 50 μg/ml, 24 h
Residues, ends and D or L forms follow the SMILES beside them. *: point of attachment. Palmitoyl = CCCCCCCCCCCCCCCC(=O)*; Myristoyl = CCCCCCCCCCCCCC(=O)*; NHHex = CCCCCCN*
Examples of compounds with documented NFKB1 fold induction respect to basal conditions follow.
PROPERTY_MEASURED: NFKB1 fold induction respect to basal conditions

compound="CCCCCCCCCCCCCC(=O)N[C@@H](CCC(=O)O)C(=O)N[C@@H](CCC(=O)O)C(=O)N[C@@H](CCSC)C(=O)N[C@@H](CCC(N)=O)C(=O)N[C@@H](CCCNC(=N)N)C(=O)N[C@@H](CCCNC(=N)N)C(=O)N[C@@H](C)C(=O)N[C@@H](CCC(=O)O)C(N)=O [PEP-29, Myr-Glu-Glu-Met-Gln-Arg-Arg-Ala-Glu-NH2] (Myristoyl-EEMQRRAE-NH2)" result_number=2.72
compound="CCCCCCNC(=O)[C@H](CCCNC(=N)N)NC(=O)[C@H](CCCNC(=N)N)NC(=O)[C@H](CCC(N)=O)NC(=O)[C@H](CCSC)NC(=O)[C@H](CCC(=O)O)NC(=O)[C@@H](N)CCC(=O)O [PEP-65, H-Glu-Glu-Met-Gln-Arg-Arg-NCH6H13] (H-EEMQRR-NHHex)" result_number=2.41
compound="CCCCCCCCCCCCCCCC(=O)N[C@@H](CCC(=O)O)C(=O)N[C@@H](CCC(=O)O)C(=O)N[C@@H](CCSC)C(=O)N[C@@H](CCC(N)=O)C(=O)N[C@@H](CCCNC(=N)N)C(=O)N[C@@H](CCCNC(=N)N)C(=O)N[C@@H](C)C(=O)N[C@@H](CC(N)=O)C(=O)O [PEP-33, Palm-Glu-Glu-Met-Gln-Arg-Arg-Ala-Asn-OH] (Palmitoyl-EEMQRRAN-OH)" result_number=2.63
compound="CCCCCCNC(=O)[C@H](CC(=O)O)NC(=O)[C@H](C)NC(=O)[C@H](CCCNC(=N)N)NC(=O)[C@H](CCCNC(=N)N)NC(=O)[C@H](CCC(N)=O)NC(=O)[C@H](CCSC)NC(=O)[C@H](CCC(=O)O)NC(=O)[C@@H](N)CCC(=O)O [PEP-36] (H-EEMQRRAD-NHHex)" result_number=2.53
compound="CCCCCCCCCCCCCC(=O)N[C@@H](CCC(=O)O)C(=O)N[C@@H](CCC(=O)O)C(=O)N[C@@H](CCSC)C(=O)N[C@@H](CCC(N)=O)C(=O)N[C@@H](CCCNC(=N)N)C(=O)N[C@@H](CCCNC(=N)N)C(N)=O [PEP-5, Myr-Glu-Glu-Met-Gln-Arg-Arg-NH2] (Myristoyl-EEMQRR-NH2)" result_number=2.64
compound="CCCCCCCCCCCCCC(=O)N[C@@H](CCC(=O)O)C(=O)N[C@@H](CCC(=O)O)C(=O)N[C@@H](CCSC)C(=O)N[C@@H](CCC(N)=O)C(=O)N[C@@H](CCCNC(=N)N)C(=O)N[C@@H](CCCCN)C(N)=O [PEP-60, Myr-Glu-Glu-Met-Gln-Arg-Lys-NH2] (Myristoyl-EEMQRK-NH2)" result_number=1.26
compound="CCCCCCCCCCCCCCCC(=O)N[C@@H](CCC(=O)O)C(=O)N[C@@H](CCC(=O)O)C(=O)N[C@@H](CCSC)C(=O)N[C@@H](CCC(N)=O)C(=O)N[C@@H](CCCNC(=N)N)C(=O)N[C@@H](CCCCN)C(N)=O [PEP-59, Palm-Glu-Glu-Met-Gln-Arg-Lys-NH2] (Palmitoyl-EEMQRK-NH2)" result_number=1.77
compound="CCCCCCNC(=O)[C@H](CC(=O)O)NC(=O)[C@H](C)NC(=O)[C@H](CCCNC(=N)N)NC(=O)[C@H](CCCNC(=N)N)NC(=O)[C@H](CCC(N)=O)NC(=O)[C@H](CCSC)NC(=O)[C@H](CCC(=O)O)NC(=O)[C@H](CCC(=O)O)NC(C)=O [PEP-34] (Ac-EEMQRRAD-NHHex)" result_number=2.59
compound="CCCCCCNC(=O)[C@H](CCCNC(=N)N)NC(=O)[C@H](CCCNC(=N)N)NC(=O)[C@H](CCC(N)=O)NC(=O)[C@H](CCSC)NC(=O)[C@H](CCC(=O)O)NC(=O)[C@H](CCC(=O)O)NC(C)=O [PEP-64, Ac-Glu-Glu-Met-Gln-Arg-Arg-NHC6H13] (Ac-EEMQRR-NHHex)" result_number=1.75

// data source = patent US20200002377A1
